Reference source: paper PMC11039692

target_under_test: T1, His-tagged YAP purified from Escherichia coli (human, UniProt P46937 1-504)
T1 construct: YAP, recombinant; Labelled with RED-tris-NTA 2nd Generation dye where it was the labelled partner; also called YAP protein; source: Escherichia coli, purified
test_method_notes: MST; His-tagged YAP labelled with 25 nM RED-tris-NTA 2nd Generation dye, SOX9 peptide serially diluted; 50 mM Tris-HCl pH 7.4, 150 mM NaCl, 0.05% Tween-20; room temperature; 40% LED power, medium MST power
conditions: both partners purified
// reported Kd for each item listed
quantity_name: Kd (nM)

# binder, test_result
records = [
    ("RVNGSSKNKPHVKRPMNAFMVWAQAARRKLADQ (peptide, UniProt P48436 94-126, looked up) [nNLS-containing fragment of SOX9 (aa 94–126)]", 1100),
    ("AFMVWAQAARRKLADQ (peptide, UniProt P48436 111-126, looked up) [peptide S-A1 (SOX9 amino acids 111–126)]", 2200),
]
